assay: blood concentration in mice after subcutaneous administration; assay type: in vivo; conditions: mouse, sc, mice (5), 50 mg/kg
Where a name gives a salt, the structure may show the parent alone.
readoutName: AUC (ng·h/mL)
Express the result in ng·h/mL but write the number alone.

# input molecule: CCN1CCN(C(=O)N[C@@H](C(=O)N[C@]2(NC=O)C(=O)N3[C@@H](C(=O)O)C(C)(C)S[C@@H]32)c2ccc(O)cc2)C(=O)C1=O [Example 5, sodium salt] ; wanted: its AUC
11000

---

test: blood concentration in mice after subcutaneous administration; format: in vivo; conditions: mouse, sc, mice (5), 50 mg/kg, 5 mins
Where a name gives a salt, the structure may show the parent alone.
readoutName: concentration at 5 min (ng/mL)
Express the result in ng/mL but write the number alone.

# input compound: CCN1CCN(C(=O)N[C@@H](C(=O)N[C@]2(NC=O)C(=O)N3[C@@H](C(=O)O)C(C)(C)S[C@@H]32)c2ccc(O)cc2)C(=O)C1=O [Example 5, sodium salt] ; wanted: its concentration at 5 min
24400
